# target-desc: Xanthine dehydrogenase/oxidase (Bos taurus, UniProt P80457)
# Sequence (P80457 whole entry): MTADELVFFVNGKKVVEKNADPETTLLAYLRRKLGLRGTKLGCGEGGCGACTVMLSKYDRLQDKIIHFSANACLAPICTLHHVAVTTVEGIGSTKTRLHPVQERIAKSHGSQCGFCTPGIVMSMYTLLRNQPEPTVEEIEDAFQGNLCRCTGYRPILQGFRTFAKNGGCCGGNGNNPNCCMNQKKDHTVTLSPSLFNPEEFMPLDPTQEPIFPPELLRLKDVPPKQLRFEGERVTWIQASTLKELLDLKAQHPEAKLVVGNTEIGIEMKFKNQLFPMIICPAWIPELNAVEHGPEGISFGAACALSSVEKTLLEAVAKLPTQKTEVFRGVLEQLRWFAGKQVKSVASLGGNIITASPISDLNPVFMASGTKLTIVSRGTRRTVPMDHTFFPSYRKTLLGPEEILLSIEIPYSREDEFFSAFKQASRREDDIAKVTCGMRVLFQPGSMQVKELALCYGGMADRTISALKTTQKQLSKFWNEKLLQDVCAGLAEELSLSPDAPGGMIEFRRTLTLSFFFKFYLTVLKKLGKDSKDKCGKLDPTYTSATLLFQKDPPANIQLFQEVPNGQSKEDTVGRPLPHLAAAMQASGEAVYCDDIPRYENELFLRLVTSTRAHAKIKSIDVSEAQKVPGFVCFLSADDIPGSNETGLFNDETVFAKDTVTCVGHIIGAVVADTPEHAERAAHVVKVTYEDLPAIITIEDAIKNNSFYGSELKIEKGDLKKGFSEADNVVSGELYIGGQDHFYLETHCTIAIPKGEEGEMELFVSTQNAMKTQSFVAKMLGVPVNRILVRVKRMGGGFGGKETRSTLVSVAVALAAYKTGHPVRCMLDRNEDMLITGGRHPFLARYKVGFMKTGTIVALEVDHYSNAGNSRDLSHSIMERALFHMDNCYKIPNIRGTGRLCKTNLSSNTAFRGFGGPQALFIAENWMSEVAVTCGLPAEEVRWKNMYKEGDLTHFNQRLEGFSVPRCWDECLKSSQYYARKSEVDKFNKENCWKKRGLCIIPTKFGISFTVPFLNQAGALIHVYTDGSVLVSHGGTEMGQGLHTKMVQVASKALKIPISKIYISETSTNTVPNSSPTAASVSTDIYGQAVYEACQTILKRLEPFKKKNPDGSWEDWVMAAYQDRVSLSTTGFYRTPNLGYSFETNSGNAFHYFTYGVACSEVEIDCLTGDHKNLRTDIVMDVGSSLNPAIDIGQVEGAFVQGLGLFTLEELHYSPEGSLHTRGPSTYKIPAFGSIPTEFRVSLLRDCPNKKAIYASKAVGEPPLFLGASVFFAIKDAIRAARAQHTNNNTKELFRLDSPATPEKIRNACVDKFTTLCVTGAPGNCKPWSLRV
property-name: log10 of IC50 (log10 of the value in µM)
On a log10 scale: recorded IC50, unit µM.

The cases that follow already have their log10 of IC50 on record.
O=c1cc(-c2ccc([N+](=O)[O-])cc2)oc2c1ccc1ccccc12 = 0.29
O=c1cc(-c2ccc([N+](=O)[O-])cc2)oc2ccc3ccccc3c12 = 0.72
O=c1cc(-c2ccc(F)cc2)oc2ccc3ccccc3c12 = 1.09
O=c1cc(-c2cc(F)cc(F)c2)oc2ccc3ccccc3c12 = 0.88
O=c1cc(-c2ccc(F)cc2)oc2c1ccc1ccccc12 = -0.21

Now, please, on to the next compound.
Param item = "O=c1cc(-c2ccc(Br)cc2)oc2ccc3ccccc3c12" ; retrieve measured log10 of IC50.
0.95

----------
# Test system: Mus musculus
# assay-name: Anti-hyperuricemic effect in Swiss albino mouse model of potassium oxonate-induced hyperuricemia model assessed as serum uric acid level at 10 mg/kg, po treated 1 hr post potassium oxonate addition and measured after 30 mins by ERBA method (reference value: 5.9 +/- 0.42 mg/dl)
# Type: functional
Active and inactive are the calls of the source. No cut-off for these calls is given here.
property-name: Activity

O=c1cc(-c2ccc([N+](=O)[O-])cc2)oc2c1ccc1ccccc12 = inactive
O=c1cc(-c2ccc(F)cc2)oc2c1ccc1ccccc12 = inactive
Oc1ncnc2[nH]ncc12 = 1.8 mg/dL

----------
What IC50 was measured for each of the following?
# assay-name: Antioxidant activity assessed as DPPH radical scavenging activity shaken for 1 min and incubated under dark condition for 30 mins by spectrophotometric analysis
# Assay type: functional

The cases that follow already have their IC50 on record.
O=c1cc(-c2ccccc2F)oc2ccc3ccccc3c12 = > 20 µM
O=c1cc(-c2ccccc2Br)oc2c1ccc1ccccc12 = 9.9 µM
O=c1cc(-c2ccc([N+](=O)[O-])cc2)oc2ccc3ccccc3c12 = > 20 µM
O=c1cc(-c2cccc(Br)c2)oc2ccc3ccccc3c12 = > 20 µM
Cc1ccc(-c2cc(=O)c3c(ccc4ccccc43)o2)cc1 = > 20 µM
O=c1cc(-c2ccccc2)oc2c1ccc1ccccc12 = 15.6 µM

For each of the molecules below, state IC50.
1. O=c1cc(-c2cccc(F)c2)oc2c1ccc1ccccc12
2. O=c1cc(-c2cccc(Cl)c2Cl)oc2ccc3ccccc3c12
3. O=c1cc(-c2ccc(Br)cc2)oc2ccc3ccccc3c12
4. O=c1cc(-c2cc([N+](=O)[O-])cc([N+](=O)[O-])c2)oc2c1ccc1ccccc12
5. O=c1cc(-c2cccc(Cl)c2)oc2c1ccc1ccccc12
6. O=c1cc(-c2ccc(F)cc2)oc2ccc3ccccc3c12
7. O=c1cc(-c2ccccc2Br)oc2ccc3ccccc3c12

1. 10.1 µM
2. > 20 µM
3. > 20 µM
4. 5.55 µM
5. 7.75 µM
6. > 20 µM
7. > 20 µM

For each of the molecules below, state IC50.
1. O=c1cc(-c2ccccc2F)oc2c1ccc1ccccc12
2. O=c1cc(-c2cccc(Br)c2)oc2c1ccc1ccccc12
3. O=c1cc(-c2ccccc2)oc2ccc3ccccc3c12
4. O=c1cc(-c2cccc(F)c2)oc2ccc3ccccc3c12
5. O=c1cc(-c2cccc(Cl)c2)oc2ccc3ccccc3c12
6. O=c1cc(-c2ccc([N+](=O)[O-])cc2)oc2c1ccc1ccccc12
7. O=c1cc(-c2cc(F)cc(F)c2)oc2ccc3ccccc3c12

1: 4.73 µM; 2: 5.98 µM; 3: > 20 µM; 4: > 20 µM; 5: > 20 µM; 6: 0.62 µM; 7: > 20 µM

For each of the molecules below, state IC50.
1. COc1ccc(-c2cc(=O)c3c(ccc4ccccc43)o2)cc1
2. O=c1cc(-c2cccc([N+](=O)[O-])c2)oc2ccc3ccccc3c12
3. O=c1cc(-c2ccccc2I)oc2ccc3ccccc3c12
4. COc1ccc(-c2cc(=O)c3ccc4ccccc4c3o2)cc1

["> 20 µM", "> 20 µM", "> 20 µM", "4.27 µM"]
